tested on: PhoQ (Escherichia coli, UniProt P23837)
Construct: cytoplasmic regions of PhoQ (261-486) and CpxA (188-457); His6 (C); made in house; host or cells: E. coli BL21(DE3)
Sequence (P23837 261-486): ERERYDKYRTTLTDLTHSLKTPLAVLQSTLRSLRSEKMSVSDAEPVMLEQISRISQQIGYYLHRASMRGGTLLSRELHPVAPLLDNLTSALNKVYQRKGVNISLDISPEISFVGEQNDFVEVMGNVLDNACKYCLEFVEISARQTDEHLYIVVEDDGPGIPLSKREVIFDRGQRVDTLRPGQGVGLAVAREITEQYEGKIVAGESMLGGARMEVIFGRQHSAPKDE
method summary: Inhibition of PhoQ autophosphorylation
Format: biochemical, Escherichia coli K12
measurement parameters: PhoQ; 1 µM HK, 40 µM ATP, buffer pH 7.5; read-out: IC50
pIC50: −log10 of the molar value.
Entries and their pIC50
measured attribute: pIC50

INSERT INTO assay_data (structure_notation, measured_attribute, measured_value) VALUES
  ('CC(C)(C)OC(=O)Nc1cccc(NC2=C(Cl)C(=O)c3c(O)ccc(O)c3C2=O)c1', 'pIC50', 3.88),
  ('O=C1C(Cl)=C(Nc2ccc(Cl)c(O)c2)C(=O)c2c(O)ccc(O)c21', 'pIC50', 4.37),
  ('Cc1noc2c1C(=O)c1c(O)ccc(O)c1C2=O', 'pIC50', 4.02);

---

tested on: WalK (Bacillus subtilis, UniProt Q45614)
Construct: His6 (N); made in house; host or cells: E. coli BL21(DE3)
Sequence (Q45614 207-611): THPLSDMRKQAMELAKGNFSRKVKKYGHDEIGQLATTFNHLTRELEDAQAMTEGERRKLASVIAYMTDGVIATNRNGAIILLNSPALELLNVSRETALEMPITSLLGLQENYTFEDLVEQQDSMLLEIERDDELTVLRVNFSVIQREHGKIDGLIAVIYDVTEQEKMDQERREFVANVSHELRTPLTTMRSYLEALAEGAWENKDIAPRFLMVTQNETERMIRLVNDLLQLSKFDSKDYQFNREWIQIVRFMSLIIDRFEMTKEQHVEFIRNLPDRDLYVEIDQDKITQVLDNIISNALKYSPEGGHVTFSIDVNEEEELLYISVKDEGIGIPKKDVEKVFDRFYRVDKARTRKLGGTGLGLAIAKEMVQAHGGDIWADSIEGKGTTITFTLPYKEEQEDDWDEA
method summary: Inhibition of WalK autophosphorylation
Format: biochemical
measurement parameters: against WalK from B. subtilis, autophosphorylation; N.I. = no inhibition; read-out: IC50
Entries and their log10(IC50)
measured attribute: log10(IC50) (log10 of the value in µM)

INSERT INTO assay_data (compound, tested_on, measured_value) VALUES
  ('O=C1C(N2CCNCC2)=C(Cl)C(=O)c2c1cccc2[N+](=O)[O-]', 'WalK (Bacillus subtilis, UniProt Q45614)', 2.48),
  ('O=C1C(Nc2ccc(Cl)c(O)c2)=CC(=O)c2c(O)cccc21', 'WalK (Bacillus subtilis, UniProt Q45614)', 1.88),
  ('C[C@@H]1O[C@](C)(C(=O)O)OC1/C=C/C=C/C=C/C(=O)O[C@H]1CC[C@H](c2ccc3c(c2O)C(=O)c2ccc4c(c2C3=O)C(=O)[C@@H](O)[C@](C)(O)C4)O[C@@H]1C (stereo partly drawn) [Waldiomycin, reference compound]', 'WalK (Bacillus subtilis, UniProt Q45614)', 1.12),
  ('Nc1cccc2c1C(=O)C(Cl)=C(Nc1ccc(O)c(C(=O)O)c1)C2=O', 'WalK (Bacillus subtilis, UniProt Q45614)', 1.41),
  ('O=C(O)c1cc(NC2=C(Cl)C(=O)c3c(O)ccc(O)c3C2=O)ccc1O', 'WalK (Bacillus subtilis, UniProt Q45614)', 1.65),
  ('O=C1c2onc(-c3ccccc3)c2C(=O)c2c(O)ccc(O)c21', 'WalK (Bacillus subtilis, UniProt Q45614)', 1.71);

---

tested on: WalK (207-611, B. subtilis) (Bacillus subtilis, UniProt Q45614)
Construct: His6 (N); made in house; host or cells: E. coli BL21(DE3)
method summary: Affinity selection/mass spectrometry, competition with waldiomycin
Assay type: binding
Design: key: AS/MS + competitive inhibition of the binding of waldiomycin to WalK; − increased binding of waldiomycin to WalK
measurement parameters: summary class, effect on binding of waldiomycin to WalK
measured attribute: AS/MS

INSERT INTO measurements (structure_notation, measured_value) VALUES
  ('Cc1noc2c1C(=O)c1c(O)ccc(O)c1C2=O', '+'),
  ('CC(C)(C)OC(=O)Nc1cccc(NC2=C(Cl)C(=O)c3c(O)ccc(O)c3C2=O)c1', '−'),
  ('O=C1C(N2CCNCC2)=CC(=O)c2c(O)cccc21', '−'),
  ('O=C1C(Cl)=C(Nc2ccc(Cl)c(O)c2)C(=O)c2c(O)ccc(O)c21', '−'),
  ('Nc1cccc2c1C(=O)C(Cl)=C(Nc1ccc(O)c(C(=O)O)c1)C2=O', '+');

---

tested on: WalK (Bacillus subtilis, UniProt Q45614)
Construct: His6 (N); made in house; host or cells: E. coli BL21(DE3)
method summary: Inhibition of WalK autophosphorylation
Format: biochemical
measurement parameters: in words
measured attribute: inhibitory activity against WalK

INSERT INTO measurements (compound, measured_value) VALUES
  ('O=C(O)c1cc(NC2=C(Cl)C(=O)c3c(O)ccc(O)c3C2=O)ccc1O [2m]', 'weaker'),
  ('O=C1C(Cl)=C(N2CCNCC2)C(=O)c2c(O)ccc(O)c21 [2a]', 'weaker'),
  ('Nc1cccc2c1C(=O)C(Cl)=C(Nc1ccc(O)c(C(=O)O)c1)C2=O [2o]', 'weaker');

---

tested on: WalK (Bacillus subtilis, UniProt Q45614)
Construct: His6 (N); made in house; host or cells: E. coli BL21(DE3)
method summary: Inhibition of WalK autophosphorylation
Format: biochemical
Parameters: key: WalK + inhibitory effect against WalK
measurement parameters: summary class
measured attribute: WalK

INSERT INTO measurements (compound, measured_attribute, measured_value) VALUES
  ('O=C1C(N2CCNCC2)=CC(=O)c2c(O)cccc21 [2b]', 'WalK', '+'),
  ('O=C1C(Cl)=C(Nc2ccc(Cl)c(O)c2)C(=O)c2c(O)ccc(O)c21 [2h]', 'WalK', '+'),
  ('CC(C)(C)OC(=O)Nc1cccc(NC2=C(Cl)C(=O)c3c(O)ccc(O)c3C2=O)c1 [2l]', 'WalK', '+'),
  ('Nc1cccc2c1C(=O)C(Cl)=C(Nc1ccc(O)c(C(=O)O)c1)C2=O [2o]', 'WalK', '+'),
  ('Cc1noc2c1C(=O)c1c(O)ccc(O)c1C2=O [3b]', 'WalK', '+'),
  ('O=C1C(Cl)=C(N2CCNCC2)C(=O)c2c(O)ccc(O)c21 [2a]', 'WalK', '+');

---

Entries and their IC50
tested on: CpxA (Escherichia coli, UniProt P0AE82)
Construct: cytoplasmic regions of PhoQ (261-486) and CpxA (188-457); His6 (C); made in house; host or cells: E. coli BL21(DE3)
Sequence (P0AE82 188-457): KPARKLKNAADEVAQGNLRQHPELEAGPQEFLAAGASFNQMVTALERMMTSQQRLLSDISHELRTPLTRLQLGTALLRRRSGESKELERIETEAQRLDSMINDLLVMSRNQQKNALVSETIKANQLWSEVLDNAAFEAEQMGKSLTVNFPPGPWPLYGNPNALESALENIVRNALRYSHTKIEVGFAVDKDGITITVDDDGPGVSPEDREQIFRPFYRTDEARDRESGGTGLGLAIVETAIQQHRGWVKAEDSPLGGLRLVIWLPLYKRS
method summary: Inhibition of CpxA autophosphorylation
Format: biochemical, Escherichia coli K12
measurement parameters: CpxA; 1 µM HK, 40 µM ATP; read-out: IC50
measured attribute: IC50 (µM)

INSERT INTO measurements (structure_notation, measured_attribute, measured_value) VALUES
  ('Cc1noc2c1C(=O)c1c(O)ccc(O)c1C2=O', 'IC50', 104),
  ('CC(C)(C)OC(=O)Nc1cccc(NC2=C(Cl)C(=O)c3c(O)ccc(O)c3C2=O)c1', 'IC50', 32.7),
  ('O=C1C(Cl)=C(Nc2ccc(Cl)c(O)c2)C(=O)c2c(O)ccc(O)c21', 'IC50', 19.5);
